The values you see were collected from patent US10988440B2.

- system: FTO (Homo sapiens)
- Sequence (Q9C0B1 whole entry): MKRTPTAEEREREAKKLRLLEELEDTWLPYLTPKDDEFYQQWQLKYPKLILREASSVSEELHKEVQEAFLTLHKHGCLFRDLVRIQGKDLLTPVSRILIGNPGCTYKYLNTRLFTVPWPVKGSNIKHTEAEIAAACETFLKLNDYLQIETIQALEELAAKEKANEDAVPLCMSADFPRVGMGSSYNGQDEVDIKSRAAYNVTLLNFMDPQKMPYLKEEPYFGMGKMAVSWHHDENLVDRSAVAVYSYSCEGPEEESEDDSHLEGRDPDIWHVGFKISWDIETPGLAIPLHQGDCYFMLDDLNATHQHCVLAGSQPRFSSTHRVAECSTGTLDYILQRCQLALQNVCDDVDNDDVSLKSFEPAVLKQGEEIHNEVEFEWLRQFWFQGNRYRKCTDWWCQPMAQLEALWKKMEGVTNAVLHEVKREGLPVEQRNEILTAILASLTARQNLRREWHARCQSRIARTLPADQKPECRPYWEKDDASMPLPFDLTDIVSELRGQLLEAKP
- procedureDetails: demethylation reaction catalyzed by FTO (enzymatic inhibition, HPLC-MS/MS of N6-mA and A)
- Type: biochemical
- testConditions: exemplary IC50 data of representative compounds; read-out: Enzymatic inhibition (IC50)
measurementType: IC50

Given the compound N#C/C(=C\c1cc(O)c(O)c([N+](=O)[O-])c1)C(=O)Nc1nccs1 , what is its reported IC50?
~1 µM

For the compound N#C/C(=C(/N)c1cc(O)c(O)c([N+](=O)[O-])c1)c1cnc(C(=O)O)cn1 [Compound 697N] , what IC50 is on record?
< 1 µM

Quick one: IC50 for N#C/C(=C\c1cc(O)c(O)c([N+](=O)[O-])c1)c1ccncn1 ?
< 1 µM

# lookup: IC50 of N#C/C(C(=O)NC1CC1)=C(/O)c1cc(O)c(O)c([N+](=O)[O-])c1
< 1 µM

Fill in the blank: the reported IC50 of N#C/C(=C\c1cc(O)c(O)c([N+](=O)[O-])c1)c1cnccn1 is ____.
< 1 µM

Consider the compound N#C/C(=C\c1cc(O)c(O)c([N+](=O)[O-])c1)C(=O)Nc1nc2ccccc2s1 and give its measured IC50.
> 1 µM

Entry under review: N#C/C(=C\c1cc(O)c(O)c([N+](=O)[O-])c1)c1nccs1 . Reported IC50?
~1 µM

Could you share which IC50 value was measured for N#C/C(=C(/O)c1cc(O)c(O)c([N+](=O)[O-])c1)c1nc2ccccc2s1 ?
> 1 µM

Which IC50 reading was recorded for the compound N#C/C(=C\c1cc(O)c(O)c([N+](=O)[O-])c1)C(=O)NC1COC1 ?
< 1 µM

# lookup: IC50 of N#C/C(C(=O)c1cscn1)=C(/O)c1cc(O)c(O)c([N+](=O)[O-])c1
~1 µM

Tell me the measured IC50 of N#C/C(=C\c1cc(O)c(O)c([N+](=O)[O-])c1)C(=O)N1CCC1 , please.
< 1 µM

Consider the compound COc1cc(/C(O)=C(\C#N)C(=O)NCc2ccncn2)cc([N+](=O)[O-])c1O and give its measured IC50.
> 1 µM

What value of IC50 has been recorded for this entry: N#C/C(C(=O)N1CCC1)=C(/O)c1cc(O)c(O)c([N+](=O)[O-])c1
< 1 µM

Endpoint output: IC50 of N#C/C(=C\c1cc(O)c(O)c([N+](=O)[O-])c1)c1cncnc1 . Value?
~1 µM

Which measured IC50 value corresponds to N#C/C(=C\c1cc(O)c(O)c([N+](=O)[O-])c1)c1ccncc1 ?
~1 µM

Tell me the measured IC50 of CCNC(=O)/C(C#N)=C/c1cc(O)c(O)c([N+](=O)[O-])c1 , please.
> 1 µM

Give its IC50 value. Item: N#C/C(=C\c1cc(O)c(O)c([N+](=O)[O-])c1)C(=O)N1CCC[C@H]1C(=O)O
~1 µM
